Reference source: ChEMBL document CHEMBL2434820

Molecular target: Tyrosine-protein phosphatase non-receptor type 1 (Homo sapiens)
Sequence (P18031 whole entry): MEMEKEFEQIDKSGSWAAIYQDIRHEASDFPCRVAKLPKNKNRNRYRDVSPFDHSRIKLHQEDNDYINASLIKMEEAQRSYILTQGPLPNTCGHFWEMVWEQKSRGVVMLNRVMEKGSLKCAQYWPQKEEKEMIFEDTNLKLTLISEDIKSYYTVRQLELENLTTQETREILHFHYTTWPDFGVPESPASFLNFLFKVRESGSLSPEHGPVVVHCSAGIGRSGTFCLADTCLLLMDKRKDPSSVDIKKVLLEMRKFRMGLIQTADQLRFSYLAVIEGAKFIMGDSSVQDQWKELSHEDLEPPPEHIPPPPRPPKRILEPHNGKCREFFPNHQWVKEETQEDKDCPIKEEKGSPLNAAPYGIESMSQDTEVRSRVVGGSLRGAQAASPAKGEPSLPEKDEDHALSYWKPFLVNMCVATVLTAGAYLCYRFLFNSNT
measured.quantity: IC50 (µM)

{"compound.smiles": "CCOC(=O)/C(C)=C\\C(C)=C\\c1nc([C@H](Cc2ccc(OCc3ccccc3)cc2)NC(=O)C2CCCCC2)sc1C", "tested.system": "Tyrosine-protein phosphatase non-receptor type 1 (Homo sapiens)", "IC50 [µM]": 13.5}

a = O=C(CCc1c[nH]c2ccccc12)N[C@@H](Cc1ccc(OCc2ccccc2)cc1)c1nc(C(=O)Nc2ccc(C(=O)O)cc2)c(-c2ccccc2)s1
b = COC(=O)c1ccccc1NC(=O)c1csc([C@H](Cc2ccc(OCc3ccccc3)cc2)NC(=O)C2CCCCC2)n1
c = O=C(CCc1c[nH]c2ccccc12)N[C@@H](Cc1ccc(OCc2ccccc2)cc1)c1nc(C(=O)Nc2ccc(Cl)c(C(=O)O)c2)c(-c2ccccc2)s1
hey, can you rank those compounds up there by IC50? biggest number first please Provide your answer as the labels ordered per the instruction.
b, a, c
